The values you see were collected from patent US20170008955A1.

- Target system: T1, cSNK:BSA conjugate (bovine, head-to-tail cyclized; conjugated to BSA carrier)
- T1 construct: also called BSA-cSNK
- T1 sequence (P02769 25-607 limits assumed): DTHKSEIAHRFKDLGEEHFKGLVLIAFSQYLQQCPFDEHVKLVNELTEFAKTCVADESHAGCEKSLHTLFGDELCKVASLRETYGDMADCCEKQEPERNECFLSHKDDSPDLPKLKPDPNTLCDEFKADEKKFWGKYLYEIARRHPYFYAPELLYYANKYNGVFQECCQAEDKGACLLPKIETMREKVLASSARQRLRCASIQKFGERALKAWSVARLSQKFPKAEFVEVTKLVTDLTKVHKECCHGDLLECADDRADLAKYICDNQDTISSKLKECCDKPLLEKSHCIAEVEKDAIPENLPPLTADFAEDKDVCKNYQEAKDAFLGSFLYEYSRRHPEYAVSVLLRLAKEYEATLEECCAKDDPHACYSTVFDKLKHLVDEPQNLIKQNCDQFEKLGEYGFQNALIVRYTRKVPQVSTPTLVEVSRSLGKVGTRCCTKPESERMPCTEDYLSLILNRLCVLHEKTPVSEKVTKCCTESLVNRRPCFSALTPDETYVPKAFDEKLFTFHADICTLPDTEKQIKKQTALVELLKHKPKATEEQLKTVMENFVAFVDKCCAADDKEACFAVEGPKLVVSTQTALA
- Assay method text: BLI (Octet RED96), 2:1 kinetics, KD1, summary table
Below, each entry is listed with its recorded Kd.
Measurement kind: Kd (nM)

| Binder | Measurement kind | Value observed |
| --- | --- | --- |
| rehu5E3-IgG4 (antibody, V domains shown, human IgG4/kappa; also called IgG4 rehu version) VH: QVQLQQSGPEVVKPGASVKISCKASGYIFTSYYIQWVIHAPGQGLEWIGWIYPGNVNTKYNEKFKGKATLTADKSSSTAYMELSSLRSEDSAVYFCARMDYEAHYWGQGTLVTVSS VL: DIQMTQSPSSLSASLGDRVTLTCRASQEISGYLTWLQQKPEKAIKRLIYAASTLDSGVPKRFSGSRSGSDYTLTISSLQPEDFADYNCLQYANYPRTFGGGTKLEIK | Kd | 0.557 |
| hu5E3-IgG4 (antibody, V domains shown, human IgG4/kappa; also called humanized 5E3 IgG4) VH: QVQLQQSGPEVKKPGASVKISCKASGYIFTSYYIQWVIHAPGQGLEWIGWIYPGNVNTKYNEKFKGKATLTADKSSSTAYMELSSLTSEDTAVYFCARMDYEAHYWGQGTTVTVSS VL: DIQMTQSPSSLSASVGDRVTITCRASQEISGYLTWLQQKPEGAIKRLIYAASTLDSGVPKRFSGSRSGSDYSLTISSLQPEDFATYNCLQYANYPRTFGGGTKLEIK | Kd | 0.633 |
